# target: CALRins5 (mutant calreticulin, 5 base pair insertion, Type 2) expressed with MPL on engineered cancer cells (UniProt P27797)
# Sequence (P27797 other isoform, or with tags, fused parts or gaps mutant limits assumed): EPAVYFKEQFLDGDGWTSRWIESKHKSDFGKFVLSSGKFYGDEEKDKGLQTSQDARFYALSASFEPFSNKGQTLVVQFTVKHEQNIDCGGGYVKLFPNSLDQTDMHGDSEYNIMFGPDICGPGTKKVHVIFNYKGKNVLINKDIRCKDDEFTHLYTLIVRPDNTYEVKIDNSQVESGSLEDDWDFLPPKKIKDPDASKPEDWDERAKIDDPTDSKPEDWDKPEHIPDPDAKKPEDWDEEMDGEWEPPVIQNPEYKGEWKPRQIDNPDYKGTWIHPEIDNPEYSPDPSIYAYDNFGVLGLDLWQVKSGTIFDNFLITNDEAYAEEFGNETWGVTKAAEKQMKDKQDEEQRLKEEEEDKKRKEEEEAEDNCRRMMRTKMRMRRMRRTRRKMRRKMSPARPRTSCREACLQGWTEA
# method-summary: cell-based or functional assay
measured-endpoint: Cytotoxicity EC50, OCI-M2 MPL CALRins5 cells (µg/mL)

binder: CALRB117 (MP1010 Fab x CD3W245-HL-scFv, high affinity) (bispecific antibody, part only; not given: anti-CD3 scFv arm, constant regions, V domains shown, not shown: another chain or arm of the molecule; a dimerising Fc or GST; small tags and cut ends) VH: QSVEESGGRLVTPGTPLTLTCTVSGIDLSNNAISWVRQAPGKGLEYIGVIGNTGDTYYASWAKGRFTISKTSSTTVDLKMTSLTTEDTATYFCVRGPPSYSNSVKNIWGPGTLVTISS VL: DPMLTQTPSSVSAAVGGTVTIGCQSSQSVYDKNWLSWYQQKPGQPPSRLIYDASKLESGVPSRFSGSGSGTQFTLTISGVQSDDVATYYCAGGFTGNVYAFGGGTEVVVK
unit-text: µg/mL
recorded-result: 0.0481

binder: CALRB78 (MP1016C Fab x CD3W245-LH-scFv, medium affinity) (bispecific antibody, part only; not given: anti-CD3 scFv arm, constant regions, V domains shown, not shown: another chain or arm of the molecule; a dimerising Fc or GST; small tags and cut ends) VL: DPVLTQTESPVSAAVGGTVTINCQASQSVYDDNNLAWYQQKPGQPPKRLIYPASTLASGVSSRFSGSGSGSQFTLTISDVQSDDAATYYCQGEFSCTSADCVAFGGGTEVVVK VH: QEQLKESGGRLVTPGTPLTLTCTASGFSLSNYYMSWVRQAPGKGLEWIGGISSRAGTWYASWAKGRFTISGTSSTTMDLKITSPTTEDTATYFCARGLKIWGPGTLVTVSS
unit-text: µg/mL
recorded-result: 0.0792

Values were extracted from patent US20260125457A1.
